Molecular target: T1, BMP-9 (UniProt Q9UK05 320-429)
T1 sequence (looked up): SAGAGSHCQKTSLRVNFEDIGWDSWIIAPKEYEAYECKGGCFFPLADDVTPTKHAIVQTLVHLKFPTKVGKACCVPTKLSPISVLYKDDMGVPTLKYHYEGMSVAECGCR
Test: cell-based or functional assay
This listing pairs binders with measured IC50, BRE-luciferase reporter in C2C12 cells.
Answer as a quantity: numeral, then unit.

Solved cases below.
[
  {
    "BINDER": "ActRIIB-A8 (SEQ ID NO: 126) chimera-Fc protein (Fc fusion, Tested as chimera-Fc protein; not shown: linker (if any) and Fc domain) GRGEAETRECIYYNANWELERTNQSGLERCEGEQDKRLHCYASWRNSSGTIELVKKGCWLDDFNCYDRQECVATEENPQVYFCCCEGNFCNERFTHLPEMEVTQPTS",
    "REPORTED_MEASUREMENT": "3.6 mg/L"
  },
  {
    "BINDER": "ActRIIB-B5 (SEQ ID NO: 114) chimera-Fc protein (Fc fusion, Tested as chimera-Fc protein; not shown: linker (if any) and Fc domain) GRGEAETRECIYYNANWELERTNQSGLERCEGEQDKRLHCYASWRNSSGTIELVKKGCWLDDFNCYDRQECVEKEENPQVYFCCCEGNFCNERFTHLPEAGGPEVTYEPPPTAPT",
    "REPORTED_MEASUREMENT": "0.022 mg/L"
  },
  {
    "BINDER": "ActRIIB-B7 (SEQ ID NO: 115) chimera-Fc protein (Fc fusion, Tested as chimera-Fc protein; not shown: linker (if any) and Fc domain) GRGEAETRECIYYNANWELERTNQSGLERCEGEQDKRLHCYASWRNSSGTIELVKKGCWLDDFNCYDRQECVATEENPQVYFCCCEGNFCNEKFSYFPEAGGPEVTYEPPPTAPT",
    "REPORTED_MEASUREMENT": "0.032 mg/L"
  }
]

Req: Consider the binder ActRIIB-B1B2B3B4 (SEQ ID NO: 119) chimera-Fc protein (Fc fusion, Tested as chimera-Fc protein; not shown: linker (if any) and Fc domain) GRGEAETRECLFFNANWELERTNQTGVEPCEGEQDKRRHCFATWKNISGSIEIVKQGCWLDDFNCYDRQECVATEENPQVYFCCCEGNFCNERFTHLPEAGGPEVTYEPPPTAPT and give its measured IC50, BRE-luciferase reporter in C2C12 cells.
Resp: 0.36 mg/L

Req: Quick one: IC50, BRE-luciferase reporter in C2C12 cells of ActRIIB-A5 (SEQ ID NO: 123) chimera-Fc protein (Fc fusion, Tested as chimera-Fc protein; not shown: linker (if any) and Fc domain) GRGEAETRECIYYNANWELERTNQSGLERCEGEQDKRLHCYASWRNSSGTIELVKKGCWLDDINCYDRTDCVATEENPQVYFCCCEGNFCNERFTHLPEAGGPEVTYEPPPTAPT ?
Resp: 0.4 mg/L

Req: Can you look up the measured IC50, BRE-luciferase reporter in C2C12 cells of ActRIIB-A7 (SEQ ID NO: 125) chimera-Fc protein (Fc fusion, Tested as chimera-Fc protein; not shown: linker (if any) and Fc domain) GRGEAETRECIYYNANWELERTNQSGLERCEGEQDKRLHCYASWRNSSGTIELVKKGCWLDDFNCYDRQECVATEENPQVYFCCCEGNMCNERFTHLPEAGGPEVTYEPPPTAPT for me?
Resp: 0.061 mg/L

Req: Which IC50, BRE-luciferase reporter in C2C12 cells reading was recorded for the binder ActRIIB-B3 (SEQ ID NO: 112) chimera-Fc protein (Fc fusion, Tested as chimera-Fc protein; not shown: linker (if any) and Fc domain) GRGEAETRECIYYNANWELERTNQSGLERCEGEQDKRRHCFATWKNISGTIELVKKGCWLDDFNCYDRQECVATEENPQVYFCCCEGNFCNERFTHLPEAGGPEVTYEPPPTAPT ?
Resp: 0.41 mg/L

Req: Entry ActRIIB-A3 (SEQ ID NO: 122) chimera-Fc protein (Fc fusion, Tested as chimera-Fc protein; not shown: linker (if any) and Fc domain) GRGEAETRECIYYNANWELERTNQSGLERCYGDKDKRLHCYASWRNSSGTIELVKKGCWLDDFNCYDRQECVATEENPQVYFCCCEGNFCNERFTHLPEAGGPEVTYEPPPTAPT has what IC50, BRE-luciferase reporter in C2C12 cells?
Resp: 0.1 mg/L
